Each recorded value in this set is attributed to paper PMC12935787.

# method: Clinical pharmacokinetics, plasma LC-MS/MS after single oral dose of AP capsules
# Format: in vivo, human (healthy volunteers)
# condition_parameters: human, plasma, oral, 2000 mg, S2; 24.00 h; 2000 mg AP capsules; read-out: Plasma concentration
# Experimental: The protocol was published (Tee et al. [2022]). Seven calibrators ranging from 1, 2, 5,10, 20, 50, and 100 ng mL^−1 were prepared. […] Pharmacokinetic parameters were determined from plasma samples (5 subjects, 15 time points) analyzed via LC–MS/MS (Shimadzu 8060NX). […]
Quick list: concentration at 24 h per entry.
Give your result in ng/mL as a bare value.

C=C1CC[C@@H]2[C@](C)(CO)[C@H](O)CC[C@@]2(C)[C@@H]1CCC1=CCOC1=O [14-deoxyandrographolide] ... 0
C=C1CC[C@@H]2[C@](C)(CO[C@@H]3O[C@H](CO)[C@@H](O)[C@H](O)[C@H]3O)CCC[C@@]2(C)[C@@H]1CCC1=CCOC1=O [neoandrographolide] ... 0

Now consider a different compound.
Would you kindly share the measured concentration at 24 h for C=C1CC[C@@H]2[C@](C)(CO)[C@H](O)CC[C@@]2(C)[C@@H]1C/C=C1/C(=O)OC[C@H]1O [andrographolide] ? 0

* * *

Quick list: concentration at 4 h per entry.
# method: Clinical pharmacokinetics, plasma LC-MS/MS after single oral dose of AP capsules
# Type: in vivo, human (healthy volunteers)
# condition_parameters: human, plasma, oral, 2000 mg, S2; 4.00 h; 2000 mg AP capsules; read-out: Plasma concentration
Give your result in ng/mL as a bare value.

Worked set:
C=C1CC[C@@H]2[C@](C)(CO[C@@H]3O[C@H](CO)[C@@H](O)[C@H](O)[C@H]3O)CCC[C@@]2(C)[C@@H]1CCC1=CCOC1=O [neoandrographolide] ... 12.8
C=C1CC[C@@H]2[C@](C)(CO)[C@H](O)CC[C@@]2(C)[C@@H]1CCC1=CCOC1=O [14-deoxyandrographolide] ... 0

Now consider a different compound.
Would you kindly share the measured concentration at 4 h for C=C1CC[C@@H]2[C@](C)(CO)[C@H](O)CC[C@@]2(C)[C@@H]1C/C=C1/C(=O)OC[C@H]1O [andrographolide] ? 0

* * *

Quick list: concentration at 8 h per entry.
# method: Clinical pharmacokinetics, plasma LC-MS/MS after single oral dose of AP capsules
# Format: in vivo, human (healthy volunteers)
# condition_parameters: human, plasma, oral, 2000 mg, mean n=5; 8.00 h; 2000 mg AP capsules; read-out: Mean concentration
Give your result in ng/mL as a bare value.

C=C1CC[C@@H]2[C@](C)(CO)[C@H](O)CC[C@@]2(C)[C@@H]1C/C=C1/C(=O)OC[C@H]1O [andrographolide] ... 0
C=C1CC[C@@H]2[C@](C)(CO[C@@H]3O[C@H](CO)[C@@H](O)[C@H](O)[C@H]3O)CCC[C@@]2(C)[C@@H]1CCC1=CCOC1=O [neoandrographolide] ... 1.22

Now consider a different compound.
Would you kindly share the measured concentration at 8 h for C=C1CC[C@@H]2[C@](C)(CO)[C@H](O)CC[C@@]2(C)[C@@H]1CCC1=CCOC1=O [14-deoxyandrographolide] ? 0.49

* * *

# method: Clinical pharmacokinetics, plasma LC-MS/MS after single oral dose of AP capsules
# Type: in vivo, human (healthy volunteers)
# condition_parameters: human, plasma, oral, 2000 mg, S1; 0.50 h; 2000 mg AP capsules; read-out: Plasma concentration
value_type: concentration at 0.5 h (ng/mL)
Give your result in ng/mL as a bare value.

C=C1CC[C@@H]2[C@](C)(CO[C@@H]3O[C@H](CO)[C@@H](O)[C@H](O)[C@H]3O)CCC[C@@]2(C)[C@@H]1CCC1=CCOC1=O [neoandrographolide] ... 13.2
C=C1CC[C@@H]2[C@](C)(CO)[C@H](O)CC[C@@]2(C)[C@@H]1C/C=C1/C(=O)OC[C@H]1O [andrographolide] ... 3.76

Now consider a different compound.
Would you kindly share the measured concentration at 0.5 h for C=C1CC[C@@H]2[C@](C)(CO)[C@H](O)CC[C@@]2(C)[C@@H]1CCC1=CCOC1=O [14-deoxyandrographolide] ? 4.67

* * *

# method: Clinical pharmacokinetics, plasma LC-MS/MS after single oral dose of AP capsules
# Type: in vivo, human (healthy volunteers)
# condition_parameters: human, plasma, oral, 2000 mg, S4; 3.50 h; 2000 mg AP capsules; read-out: Plasma concentration
value_type: concentration at 3.5 h (ng/mL)
Give your result in ng/mL as a bare value.

Worked set:
C=C1CC[C@@H]2[C@](C)(CO)[C@H](O)CC[C@@]2(C)[C@@H]1CCC1=CCOC1=O [14-deoxyandrographolide] ... 2.29
C=C1CC[C@@H]2[C@](C)(CO[C@@H]3O[C@H](CO)[C@@H](O)[C@H](O)[C@H]3O)CCC[C@@]2(C)[C@@H]1CCC1=CCOC1=O [neoandrographolide] ... 33.5

Now consider a different compound.
Would you kindly share the measured concentration at 3.5 h for C=C1CC[C@@H]2[C@](C)(CO)[C@H](O)CC[C@@]2(C)[C@@H]1C/C=C1/C(=O)OC[C@H]1O [andrographolide] ? 2.09

* * *

Quick list: concentration at 8 h per entry.
# method: Clinical pharmacokinetics, plasma LC-MS/MS after single oral dose of AP capsules
# Type: in vivo, human (healthy volunteers)
# condition_parameters: human, plasma, oral, 2000 mg, S5; 8.00 h; 2000 mg AP capsules; read-out: Plasma concentration
Give your result in ng/mL as a bare value.

Worked set:
C=C1CC[C@@H]2[C@](C)(CO)[C@H](O)CC[C@@]2(C)[C@@H]1CCC1=CCOC1=O [14-deoxyandrographolide] ... 0
C=C1CC[C@@H]2[C@](C)(CO[C@@H]3O[C@H](CO)[C@@H](O)[C@H](O)[C@H]3O)CCC[C@@]2(C)[C@@H]1CCC1=CCOC1=O [neoandrographolide] ... 1.35

Now consider a different compound.
Would you kindly share the measured concentration at 8 h for C=C1CC[C@@H]2[C@](C)(CO)[C@H](O)CC[C@@]2(C)[C@@H]1C/C=C1/C(=O)OC[C@H]1O [andrographolide] ? 0

* * *

Quick list: concentration at 12 h per entry.
# method: Clinical pharmacokinetics, plasma LC-MS/MS after single oral dose of AP capsules
# Format: in vivo, human (healthy volunteers)
# condition_parameters: human, plasma, oral, 2000 mg, S5; 12.00 h; 2000 mg AP capsules; read-out: Plasma concentration
Give your result in ng/mL as a bare value.

Worked set:
C=C1CC[C@@H]2[C@](C)(CO)[C@H](O)CC[C@@]2(C)[C@@H]1C/C=C1/C(=O)OC[C@H]1O [andrographolide] ... 0
C=C1CC[C@@H]2[C@](C)(CO)[C@H](O)CC[C@@]2(C)[C@@H]1CCC1=CCOC1=O [14-deoxyandrographolide] ... 0

Now consider a different compound.
Would you kindly share the measured concentration at 12 h for C=C1CC[C@@H]2[C@](C)(CO[C@@H]3O[C@H](CO)[C@@H](O)[C@H](O)[C@H]3O)CCC[C@@]2(C)[C@@H]1CCC1=CCOC1=O [neoandrographolide] ? 0

* * *

# method: Clinical pharmacokinetics, plasma LC-MS/MS after single oral dose of AP capsules
# Type: in vivo, human (healthy volunteers)
# condition_parameters: human, plasma, oral, 2000 mg, S4; 0.00 h; 2000 mg AP capsules; read-out: Plasma concentration
# Protocol: The protocol was published (Tee et al. [2022]). Seven calibrators ranging from 1, 2, 5,10, 20, 50, and 100 ng mL^−1 were prepared. […] Pharmacokinetic parameters were determined from plasma samples (5 subjects, 15 time points) analyzed via LC–MS/MS (Shimadzu 8060NX). […]
value_type: concentration at 0 h (ng/mL)
Give your result in ng/mL as a bare value.

Worked set:
C=C1CC[C@@H]2[C@](C)(CO[C@@H]3O[C@H](CO)[C@@H](O)[C@H](O)[C@H]3O)CCC[C@@]2(C)[C@@H]1CCC1=CCOC1=O [neoandrographolide] ... 0
C=C1CC[C@@H]2[C@](C)(CO)[C@H](O)CC[C@@]2(C)[C@@H]1CCC1=CCOC1=O [14-deoxyandrographolide] ... 0

Now consider a different compound.
Would you kindly share the measured concentration at 0 h for C=C1CC[C@@H]2[C@](C)(CO)[C@H](O)CC[C@@]2(C)[C@@H]1C/C=C1/C(=O)OC[C@H]1O [andrographolide] ? 0

* * *

Quick list: concentration at 2 h per entry.
# method: Clinical pharmacokinetics, plasma LC-MS/MS after single oral dose of AP capsules
# Type: in vivo, human (healthy volunteers)
# condition_parameters: human, plasma, oral, 2000 mg, S5; 2.00 h; 2000 mg AP capsules; read-out: Plasma concentration
Give your result in ng/mL as a bare value.

Worked set:
C=C1CC[C@@H]2[C@](C)(CO)[C@H](O)CC[C@@]2(C)[C@@H]1CCC1=CCOC1=O [14-deoxyandrographolide] ... 4.99
C=C1CC[C@@H]2[C@](C)(CO[C@@H]3O[C@H](CO)[C@@H](O)[C@H](O)[C@H]3O)CCC[C@@]2(C)[C@@H]1CCC1=CCOC1=O [neoandrographolide] ... 86.8

Would you kindly share the measured concentration at 2 h for C=C1CC[C@@H]2[C@](C)(CO)[C@H](O)CC[C@@]2(C)[C@@H]1C/C=C1/C(=O)OC[C@H]1O [andrographolide] ? 3.77
